Source of measurements: patent US20240368150A1

tested on: primary human T-cells; assay: Proliferation assay after 5 days (CellTiter-Glo, CD3 stimulation; PBS counter screen); assay type: cell-based; details: Homo sapiens, T-cell, 120 h, primary human T-cells, CD3 stimulation, CellTiter-Glo after 5 days; EC50 of fitted sigmoidal curve; read-out: Tcell Proliferation CD3 EC50
pEC50: −log10 of the molar value.

Molecule: CC(N)(c1nnc(-c2ccc3c(c2)N(Cc2ccc(Cl)cc2)C(=O)[C@@H](N)CS3(=O)=O)o1)C(F)(F)F (stereo partly drawn)
Operator symbol: =
pEC50: 5.43
//
Molecule: NC1CN(c2nnc(-c3cc4c(cc3F)S(=O)(=O)C[C@H](N)C(=O)N4Cc3ccc(Cl)cc3)o2)CCC1(F)F (stereo partly drawn)
Operator symbol: =
pEC50: 6.06
//
Molecule: CC(C)(C)c1nnc(-c2cc3c(cc2F)S(=O)(=O)C[C@H](N)C(=O)N3Cc2cccc(Cl)c2)o1
Operator symbol: =
pEC50: 5.56
//
Molecule: CC(C)(C)NC(=O)c1nc(-c2cc3c(cc2F)S(=O)(=O)C[C@H](N)C(=O)N3Cc2ccc(Cl)cc2)no1
Operator symbol: =
pEC50: 5.68
//
Molecule: NC(c1nnc(-c2cc3c(cc2F)S(=O)(=O)C[C@H](N)C(=O)N3Cc2ccc(Cl)cc2)o1)C(F)(F)F (stereo partly drawn)
Operator symbol: =
pEC50: 6.11
//
Molecule: N[C@H]1CS(=O)(=O)c2cc(F)c(-c3nnc(C4CC5(CCOC5)C4)o3)cc2N(Cc2ccc(Cl)cc2)C1=O (stereo partly drawn)
Operator symbol: =
pEC50: 6.90
//
Molecule: CNC(C)(C)c1nnc(-c2ccc3c(c2)N(Cc2ccc(OC(F)(F)F)cc2)C(=O)[C@@H](N)CS3(=O)=O)o1
Operator symbol: =
pEC50: 5.14
//
Molecule: C#CCOCCOCCCC(C)(C)Nc1nc(-c2cc3c(cc2F)S(=O)(=O)C[C@H](N)C(=O)N3Cc2ccc(Cl)cc2)no1
Operator symbol: =
pEC50: 6.63
//
Molecule: CC(C)(C)c1nnc(-c2cc3c(cc2F)S(=O)(=O)C[C@H](N)C(=O)N3Cc2ccccc2Cl)o1
Operator symbol: <
pEC50: 4.70
//
Molecule: C[C@@H]1[C@H](N)C(=O)N(Cc2ccc(Cl)cc2)c2cc(-c3nnc(C(C)(C)C)o3)c(F)cc2S1(=O)=O
Operator symbol: =
pEC50: 5.94
//
Molecule: CCN1CCCC(Nc2nnc(-c3cc4c(cc3F)S(=O)(=O)C[C@H](N)C(=O)N4Cc3ccc(Cl)cc3)o2)C1 (stereo partly drawn)
Operator symbol: =
pEC50: 5.94
//
Molecule: Cc1nnc(-c2nc(-c3cc4c(cc3F)S(=O)(=O)C[C@H](N)C(=O)N4Cc3ccc(OC(F)(F)F)cc3)no2)o1
Operator symbol: =
pEC50: 6.46
//
Molecule: CC(C)(O)Cn1nnc(-c2cc3c(cc2F)S(=O)(=O)C[C@H](N)C(=O)N3Cc2ccc(Cl)cc2)n1
Operator symbol: =
pEC50: 5.69
//
Molecule: COC(=O)N1CCC2CC2(c2nnc(-c3cc4c(cc3F)S(=O)(=O)C[C@H](N)C(=O)N4Cc3ccc(Cl)cc3)o2)C1 (stereo partly drawn)
Operator symbol: =
pEC50: 6.69
//
Molecule: N[C@H]1CS(=O)(=O)c2cc(F)c(-c3nnc(-c4ccc(F)cc4)o3)cc2N(Cc2ccc(Cl)cc2)C1=O
Operator symbol: =
pEC50: 7.09
//
Molecule: CN1CC[C@@H](n2nnc(-c3cc4c(cc3F)S(=O)(=O)C[C@H](N)C(=O)N4Cc3ccc(Cl)cc3)n2)C1
Operator symbol: =
pEC50: 5.39
//
Molecule: CC(C)(C)c1nnc(-c2ccc3c(c2)N(Cc2ccc(Oc4ccccc4)cc2)C(=O)[C@@H](N)CS3(=O)=O)o1
Operator symbol: =
pEC50: 6.61
//
Molecule: CC(C)(C)NC(=O)c1nc(-c2cc3c(cc2F)S(=O)(=O)C[C@H](N)C(=O)N3Cc2ccc(OC(F)(F)F)cc2)no1
Operator symbol: =
pEC50: 6.54
//
Molecule: CC(C)(C)c1nnc(-c2ccc3c(c2)N(Cc2ccc(OCC4CC4)cc2)C(=O)[C@@H](N)CS3(=O)=O)o1
Operator symbol: =
pEC50: 5.71
//
Molecule: N[C@H]1CS(=O)(=O)c2cc(F)c(-c3noc(C4(C(F)(F)F)CC4)n3)cc2N(Cc2ccc(Cl)cc2)C1=O
Operator symbol: =
pEC50: 6.59
//
Molecule: CC(C)Oc1ccc(CN2C(=O)[C@@H](N)CS(=O)(=O)c3cc(F)c(-c4noc(C(N)C(F)(F)F)n4)cc32)cc1 (stereo partly drawn)
Operator symbol: =
pEC50: 5.50
//
Molecule: CC(C)(C)c1nnc(-c2cc3c(cc2F)S(=O)(=O)C[C@H](N)C(=O)N3Cc2ccc(Cl)cc2CN)o1
Operator symbol: <
pEC50: 4.70
//
Molecule: COC(=O)N1CCC(c2nc(-c3cc4c(cc3F)S(=O)(=O)C[C@H](N)C(=O)N4Cc3ccc(OC(C)C)cc3)no2)C1 (stereo partly drawn)
Operator symbol: =
pEC50: 6.40
//
Molecule: C#CCC(C)(C)c1nnc(-c2cc3c(cc2F)S(=O)(=O)C[C@H](N)C(=O)N3Cc2ccc(C3(C(F)(F)F)N=N3)cc2)o1
Operator symbol: =
pEC50: 7.09
//
Molecule: CC(C)(C)NC(=O)c1nc(-c2ccc3c(c2)N(Cc2ccc(OC(F)(F)F)cc2)C(=O)[C@@H](N)CS3(=O)=O)no1
Operator symbol: =
pEC50: 5.79
//
Molecule: CC(O)(CNC(=O)c1nc(-c2cc3c(cc2F)S(=O)(=O)C[C@H](N)C(=O)N3Cc2ccc(Cl)cc2)no1)C(F)(F)F (stereo partly drawn)
Operator symbol: =
pEC50: 5.61
//
Molecule: N[C@H]1CS(=O)(=O)c2ccc(-c3nnc(C4(C(F)(F)F)CC4)o3)cc2N(Cc2ccc(Cl)cc2)C1=O
Operator symbol: =
pEC50: 6.17
